MOR EC50 values by entry
# target.under.test: µ-opioid receptor (MOR), Human-ORPM1 (human, UniProt P35372 1-400)
# Sequence (P35372 whole entry): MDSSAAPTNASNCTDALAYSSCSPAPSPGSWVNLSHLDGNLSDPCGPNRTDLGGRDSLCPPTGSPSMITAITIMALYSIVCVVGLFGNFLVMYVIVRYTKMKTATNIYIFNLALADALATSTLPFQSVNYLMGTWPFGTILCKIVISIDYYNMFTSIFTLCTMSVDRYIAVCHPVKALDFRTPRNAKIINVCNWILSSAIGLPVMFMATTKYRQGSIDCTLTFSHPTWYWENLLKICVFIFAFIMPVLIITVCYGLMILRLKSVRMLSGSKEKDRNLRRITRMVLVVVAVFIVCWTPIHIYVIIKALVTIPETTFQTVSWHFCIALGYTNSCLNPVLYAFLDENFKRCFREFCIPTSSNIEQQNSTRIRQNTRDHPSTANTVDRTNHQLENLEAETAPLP
# measurement.protocol: cell-based or functional assay
Numbered stars: 1 amine (or outer) side, 2 acyl side, 3 side chain; on linkers, the order of the positions; unused ones are H or OH. Square brackets hold non-standard residues; d marks the D form. Dmt = Cc1cc(O)cc(C)c1C[C@H](N)C(=O)O; NMeβAla = CN(CCC(=O)[*:2])[*:1]; dNMeA = CN[C@H](C)C(=O)O; Sar = CNCC(=O)O

[
  {
    "binder": "H-[Dmt][dNMeA]F[Sar]-NH2 (SMILES Cc1cc(O)cc(C)c1C[C@H](N)C(=O)N(C)[C@H](C)C(=O)N[C@@H](Cc1ccccc1)C(=O)N(C)CC(N)=O) [H-DMT-N(Me)-a-F-Sar-NH2]",
    "MOR EC50": "≤ 1 nM"
  }
]

Now let's try a different one.
Problem: Bench note: what MOR EC50 did H-[Dmt][dR]W[NMeβAla]-OH (SMILES Cc1cc(O)cc(C)c1C[C@H](N)C(=O)N[C@H](CCCNC(=N)N)C(=O)N[C@@H](Cc1c[nH]c2ccccc12)C(=O)N(C)CCC(=O)O) [H-DMT-r-W-N(Me)bAla-OH] show?
Solution: ≤ 1 nM
